# Target or system: SpMyo1
# Experimental protocol: SPOT peptide array binding signal intensity (averaged, normalized) (arbitrary units (background-subtracted, floor 0; scale differs between SH3 domains)); higher = stronger binding of the SH3 domain to the peptide
Property: SPOT peptide array binding signal intensity; scope: individual binders
# output: bare number, no unit

Example results:
PLRRTVMSLPGNHDI    2.5
MARRRLPDRPPNGIG    52.8
HPRFVSPRIPSRIVK    49

Request: In one line, give reported SPOT peptide array binding signal intensity of the entry KMSRSPPRPPSLKII .
Result: 224

Request: Note SPOT peptide array binding signal intensity for the binder shown: RPKRRAPPPVPKKPS
Result: 687

This collection of values is drawn from the supplement of paper PMC4466140.
